Test system: Guinea pig (GP) tracheal rings
assay_protocol: Isoproterenol-mediated relaxation of acetylcholine-contracted guinea pig tracheal rings with α4 GABAA selective agonist
test_conditions: Cavia porcellus, isoproterenol after a single concentration of 500 uM THIP, n=8; read-out: EC50 of isoproterenol relaxation concentration-response curve
value_kind: EC50 (nM)
Give just the number in nM; leave the unit off.

Look up and report measured EC50 (Guinea pig (GP) tracheal rings) for the following compound: CC(C)NCC(O)c1ccc(O)c(O)c1 (stereo not shown) [isoproterenol]
7.6
